- method_description: MTT cytotoxicity in RPE cells
- Format: cell-based
- experimental_parameters: human, retinal pigment epithelial (RPE) cells, 50 μM, read-out: percentage of viability, 72 h
value_type: viability at 72 h, 50 µM

So what does the record say about viability at 72 h, 50 µM for CCCc1ccc(C(=O)Nc2ccc(C3CC3N)cc2)cc1.Cl (stereo not drawn) ? 106%

So what does the record say about viability at 72 h, 50 µM for C#Cc1ccc(C(=O)Nc2ccc(C3CC3N)cc2)cc1 (stereo not drawn) [MC3935, reference compound] ? 100%

So what does the record say about viability at 72 h, 50 µM for CN1CCN(c2cc(C(=O)Nc3ccc(C4CC4N)cc3)ccc2NC(=O)OCc2ccccc2)CC1 (stereo not drawn) ? 57%

So what does the record say about viability at 72 h, 50 µM for CC#Cc1ccc(C(=O)Nc2ccc(C3CC3N)cc2)cc1.Cl (stereo not drawn) ? 95%

So what does the record say about viability at 72 h, 50 µM for NC1CC1c1ccc(NC(=O)c2ccc(-c3ccccc3)cc2)cc1 (stereo not drawn) ? 49%

So what does the record say about viability at 72 h, 50 µM for Cl.NC1CC1c1ccc(NC(=O)c2ccc(C#CC3CC3)cc2)cc1 (stereo not drawn) ? 103%
